Entries and their pIC50 values follow.
Target: Recombinant human TPH1 (MBP tagged) (Homo sapiens, UniProt P17752)
Construct: cloning full length human TPH1 cDNA in to a bacterial pMAL-c5E expression vector; made in house; host or cells: E. coli BL21 (DE3)
Sequence (P17752 whole entry): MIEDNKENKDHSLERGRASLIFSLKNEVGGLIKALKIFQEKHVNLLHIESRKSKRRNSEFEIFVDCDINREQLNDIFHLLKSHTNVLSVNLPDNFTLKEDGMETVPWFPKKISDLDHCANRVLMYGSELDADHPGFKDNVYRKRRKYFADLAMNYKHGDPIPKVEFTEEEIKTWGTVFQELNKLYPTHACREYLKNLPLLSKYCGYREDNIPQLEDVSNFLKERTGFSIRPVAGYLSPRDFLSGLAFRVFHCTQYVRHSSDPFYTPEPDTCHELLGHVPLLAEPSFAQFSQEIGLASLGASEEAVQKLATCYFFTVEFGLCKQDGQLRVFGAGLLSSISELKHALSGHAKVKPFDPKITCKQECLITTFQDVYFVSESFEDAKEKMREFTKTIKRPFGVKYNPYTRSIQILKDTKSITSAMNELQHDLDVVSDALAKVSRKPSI
Assay: TPH1 in vitro inhibition assay (kinetic fluorescence)
Format: biochemical
Settings: read-out: TPH1 Range (TPH1 inhibition IC50)
pIC50: −log10 of the molar value.

These recorded examples may help you get a feel for the data.
COc1ccc(C)c(-c2ccc([C@@H](Oc3cc(N4CCC5(CC4)CN[C@H](C(=O)O)C5)nc(N)n3)C(F)(F)F)cc2)c1 [Example 55p] = 6.52 to 7.30
Cc1cc(C)cc(-c2ccc([C@@H](Oc3cc(N4CCC5(CC4)CN[C@H](C(=O)O)C5)nc(N)n3)C(F)(F)F)cc2)c1 [Example 55cq] = 6.52 to 7.30
Nc1nc(O[C@H](c2ccc(Cl)cc2-n2ccc(C(F)(F)F)n2)C(F)(F)F)cc(N2CCC3(CC2)CN[C@H](C(=O)O)C3)n1 [Example 10p] = 6.52 to 7.30
CC(C)Oc1ccc(-c2cc(Cl)ccc2[C@@H](Oc2cc(N3CCC4(CC3)CN[C@H](C(=O)O)C4)nc(N)n2)C(F)(F)F)cc1F [Example 34al] = 5.00 to 5.52
CC(C)(C)c1ccn(-c2cc(Cl)ccc2[C@@H](Oc2cc(N3CCC4(CC3)CN[C@H](C(=O)O)C4)nc(N)n2)C(F)(F)F)n1 [Example 10pa] = 6.52 to 7.30

Please find the next molecule below.
Summary for this molecule, Nc1nc(O[C@H](c2ccc(-c3ccc(C(=O)N4CCCC4)cc3)cc2)C(F)(F)F)cc(N2CCC3(CC2)CN[C@H](C(=O)O)C3)n1 [Example 55bp] : pIC50 is 6.52 to 7.30

The measured values listed here are drawn from patent US11759462B2.
